assay: Krafft point of aqueous dispersion of aldonamide; type: physicochemical; conditions: 1.0% in water by weight
measure_name: Krafft Point (1.0%) (°C)

[[record]]
compound = "CCCCCCCCCNC(=O)[C@H](O)[C@@H](O)[C@H](O[C@@H]1O[C@H](CO)[C@H](O)[C@H](O)[C@H]1O)[C@H](O)CO [MM, nonyl D-lactobionamide]"
measure_name = "Krafft Point (1.0%)"
quantitative_result = 42

[[record]]
compound = "CCCCCCCCCCCCCCCCNC(=O)[C@H](O)[C@@H](O)[C@H](O[C@@H]1O[C@H](CO)[C@H](O)[C@H](O)[C@H]1O)[C@H](O)CO [TT, C16 D-Lactobionamide]"
measure_name = "Krafft Point (1.0%)"
quantitative_result = 64

[[record]]
compound = "CCCCCCCCCCCNC(=O)[C@H](O)[C@@H](O)[C@H](O[C@@H]1O[C@H](CO)[C@H](O)[C@H](O)[C@H]1O)[C@H](O)CO [NN, C11 D-Lactobionamide]"
measure_name = "Krafft Point (1.0%)"
quantitative_result = 61

[[record]]
compound = "CCCCCCCCCCCCCNC(=O)[C@H](O)[C@@H](O)[C@H](O[C@@H]1O[C@H](CO)[C@H](O)[C@H](O)[C@H]1O)[C@H](O)CO [PP, C13 D-Lactobionamide]"
measure_name = "Krafft Point (1.0%)"
quantitative_result = 70

[[record]]
compound = "CCCCCCCCCCCCCCCNC(=O)[C@H](O)[C@@H](O)[C@H](O[C@@H]1O[C@H](CO)[C@H](O)[C@H](O)[C@H]1O)[C@H](O)CO [SS, C15 D-Lactobionamide]"
measure_name = "Krafft Point (1.0%)"
quantitative_result = 84


[I] CCCCCCCCCCCCCCCCCCNC(=O)[C@H](O)[C@@H](O)[C@H](O[C@@H]1O[C@H](CO)[C@H](O)[C@H](O)[C@H]1O)[C@H](O)CO [UU, C18 D-Lactobionamide]
[II] CCCCCCCCCCCCCCNC(=O)[C@H](O)[C@@H](O)[C@H](O[C@@H]1O[C@H](CO)[C@H](O)[C@H](O)[C@H]1O)[C@H](O)CO [QQ, C14 D-Lactobionamide]
# input For the pair I and II , which entry has the numerically smaller recorded Krafft Point (1.0%)? Identify your selection by its label.
# output II

---

assay: Effectiveness of adsorption at the interface (surface excess concentration at surface saturation); format: physicochemical; settings: 60° C., estimated by linear extrapolation
measure_name: surface excess concentration at surface saturation (Γmax)

# input surface excess concentration at surface saturation (Γmax) lookup needed for `CCCCCCCCCCCCOCCOCCOCCO` , thanks.
# output 3.83 × 10^-10 mole/cm^2

---

assay: Krafft point of aqueous dispersion of aldonamide; format: physicochemical; conditions: 0.1% in water by weight
measure_name: Krafft Point (0.1%) (°C)

Consider the worked cases shown below.
[[record]]
molecule = "CCCCCCCCCCCCOCCCNC(=O)[C@H](O)[C@@H](O)[C@H](O)[C@H](O)CO [Entry S, C12 Oxypropyl D-Gluconamide]"
measure_name = "Krafft Point (0.1%)"
quantitative_result = 61

[[record]]
molecule = "CCCCCCCCCCCCOC(=O)C(C)NC(=O)[C@H](O)[C@@H](O)[C@H](O)[C@H](O)CO (mixture of isomers) [Y, N-D-Gluconyl Dodecyl DL-Alaninate]"
measure_name = "Krafft Point (0.1%)"
quantitative_result = 53

[[record]]
molecule = "CCCCCCCCCCNC(=O)[C@H](O)[C@@H](O)[C@H](O)[C@H](O)CO [F, C10 D-Gluconamide]"
measure_name = "Krafft Point (0.1%)"
quantitative_result = 75


[A] CCCCCCCCCCCCCCOCCCNC(=O)[C@H](O)[C@@H](O)[C@H](O)[C@H](O)CO [V, C14 Oxypropyl D-Gluconamide]
[B] CCCCCCCCNC(=O)[C@H](O)[C@@H](O)[C@H](O)[C@H](O)CO [D, C8 D-Gluconamide]
[C] CCCCCCCCCCCCNC(=O)[C@H](O)[C@@H](O)[C@H](O)[C@H](O)CO [H, Dodecyl D-Gluconamide]
# input Hey, can you sort those molecules up there by Krafft Point (0.1%), smallest first? Output spec: a listing of the labels in the requested order.
# output B, A, C
(B: 12 °C, A: 53 °C, C: 91 °C)
